Molecular target: UniProtKB P14902
Sequence (P14902 whole entry): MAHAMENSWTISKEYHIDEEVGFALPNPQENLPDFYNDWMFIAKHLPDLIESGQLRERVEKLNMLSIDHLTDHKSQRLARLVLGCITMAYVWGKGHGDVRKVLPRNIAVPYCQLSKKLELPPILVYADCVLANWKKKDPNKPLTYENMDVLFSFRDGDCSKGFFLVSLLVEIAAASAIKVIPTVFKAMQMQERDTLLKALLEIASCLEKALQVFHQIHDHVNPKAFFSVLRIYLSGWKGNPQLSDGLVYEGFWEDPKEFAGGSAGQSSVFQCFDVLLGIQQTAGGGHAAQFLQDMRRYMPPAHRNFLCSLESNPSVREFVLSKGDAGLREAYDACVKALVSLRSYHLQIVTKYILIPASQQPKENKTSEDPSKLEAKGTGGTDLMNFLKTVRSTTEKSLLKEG
Assay: IDO1 PBMC RapidFire MS assay (kynurenine detection by mass spectrometry)
Type: cell-based
Set-up: to induce the expression of indoleamine 2, 3-dioxygenase (IDO1); host or cells: human PBMC stimulated with IFN-gamma and LPS
Settings: human PBMC stimulated with IFN-γ and LPS, 2 days, pIC50, read-out: PBMC PXC50 (converted)
Measured Parameter: IC50 (nM)
One number for each entry, in nM.

Record excerpt, results attached:
CC(C)CN(c1ccc([C@H](C)Cc2nnn[nH]2)cc1Nc1nc(C(F)(F)F)ns1)C1CCCCC1 [Example 101]; 1.58
CC(C)CN(c1ccc(-c2cnccc2C(=O)O)cc1Nc1nc2ccccc2o1)C1CCCCC1 [example 289]; 501
CC[C@H](CC(=O)O)c1ccc(N(CC(C)C)CC(C)C)c(Nc2nc(C(F)(F)F)ns2)c1 [Example 39]; 1

Would you be so kind as to report IC50 for each listed record?
1. CC(C)CN(c1ccc([C@H](C)CC(=O)O)cc1Nc1nc(C(F)(F)F)c[nH]1)C1CCOCC1 [Example 114]
2. CC(C)CN(c1ccc(C(C)(C)CC(=O)O)cc1Nc1nc(C(F)(F)F)ns1)C1CCOCC1 [Example 1]

1. 15.8
2. 0.794

Would you be so kind as to report IC50 for each listed record?
1. CC(C)CN(c1ccc([C@H](C)CC(=O)O)cc1Nc1n[nH]c(C(F)(F)F)n1)[C@H]1CC[C@H](O)CC1 (racemic) [example 219]
2. CC(C)CN(c1ccc(-c2ccccc2C(=O)O)cc1Nc1nc(C(F)(F)F)cs1)C1CCCCC1 [example 299]
3. CC(C)CN(CC(C)C)c1ccc(C(C)(C)CC(=O)O)cc1Nc1nc(C(F)(F)F)ns1 [Example 3]

[100, 6.31, 1.58]

Would you be so kind as to report IC50 for each listed record?
1. CC(C)CN(c1ccc(C(C)N)cc1Nc1nc(C(F)(F)F)ns1)C1CCOCC1 (stereo not shown) [example 234]
2. CC(C)CN(c1ccc([C@H](C)CC(=O)O)cc1Nc1ccc(Cl)nc1)[C@H]1CC[C@H](O)CC1 [Example 49]
3. CO[C@H]1CC[C@@H](N(CC(C)C)c2ccc([C@H](C)CC(=O)O)cc2Nc2ccc(Cl)cn2)CC1 [Example 47]

501
2
0.794

Would you be so kind as to report IC50 for each listed record?
1. CC(C)CN(c1ccc([C@H](C)CC(=O)O)cc1Nc1ccc(C#N)nc1)C1CCOCC1 [Example 13]
2. CC[C@H](CC(=O)O)c1ccc(N(CC(C)C)CC(C)C)c(Nc2nc(Cl)ns2)c1 [Example 40]
3. CC(C)CN(c1ccc([C@H](C)CC(=O)O)cc1Nc1nnc(C(N)=O)s1)C1CCCCC1 [Example 81]
4. CC(C)CN(CC(C)C)c1ccc(-c2ccccc2C(=O)O)cc1Nc1nc(C(F)(F)F)ns1 [Example 90]
5. CC(C)CN(c1ccc([C@H](C)CC(=O)O)cc1Nc1ncc(Cl)cn1)C1CCOCC1 [example 231]
6. CC(C)CN(c1ccc([C@H](C)CC(=O)O)cc1Nc1nc(C(N)=O)c[nH]1)C1CCOCC1 [example 230]
7. CC(C)CN(c1ccc(-c2ccccc2C(=O)O)cc1Nc1nc2ccccc2o1)C1CCOCC1 [example 291]

1.26
2.51
3.98
10
25.1
3160
126

Would you be so kind as to report IC50 for each listed record?
1. CC(C)CN(c1ccc([C@H](C)CC(=O)O)cc1Nc1nc(C(F)(F)F)cs1)C1CCOCC1 [Example 22]
2. CC(C)CC(=O)N1CCC(N(CC(C)C)c2ccc([C@H](C)CC(=O)O)cc2Nc2nc(C(F)(F)F)ns2)CC1 [Example 67]
3. CC(C)CN(c1ccc([C@H](C)CC(=O)O)cc1Nc1nc(C(F)(F)F)ns1)C1CCN(c2nc(C(F)(F)F)ns2)CC1 [Example 95]
4. CO[C@H]1CC[C@H](N(CC(C)C)c2ccc([C@H](C)CC(=O)O)cc2Nc2n[nH]c(C(N)=O)n2)CC1 (racemic) [example 223]

[2.51, 2, 1.58, 501]

Would you be so kind as to report IC50 for each listed record?
1. CC(C)CN(c1ccc(C(C)CC(=O)O)cc1NCc1ccccn1)C1CCCCC1 (stereo not shown) [example 161]
2. CC(C)CN(c1ccc([C@H](C)CC(=O)O)cc1Nc1ccc(Cl)c(C#N)n1)C1CCOCC1 [Example 30]
3. CC(C)CN(c1ccc(C(C)CC(=O)O)cc1NCc1c[nH]cn1)C1CCCCC1 (stereo not shown) [example 159]

1. 2000
2. 7.94
3. 5010

Would you be so kind as to report IC50 for each listed record?
1. CC(C)CN(c1ccc(C(C)CC(=O)O)cc1NC1=N[C@H](C)CO1)C1CCCCC1 (stereo partly shown) [example 151]
2. CC(C)CN(c1ccc([C@H](C)CC(=O)O)cc1Nc1nc(C(F)(F)F)ns1)C1CCN(S(C)(=O)=O)CC1 [Example 71]
3. COc1ncc(Nc2cc([C@H](C)CC(=O)O)ccc2N(CC(C)C)C2CCOCC2)cn1 [Example 15]

2510
5.01
3.16

Would you be so kind as to report IC50 for each listed record?
1. CC(C)CN(CC(C)C)c1ccc([C@H](C)CC(=O)O)cc1Nc1n[nH]c(C(F)(F)F)n1 [Example 86]
2. CC(C)CN(c1ccc([C@H](C)CC(=O)O)cc1Nc1ccc(Cl)nn1)C1CCOCC1 [Example 11]

1. 3.98
2. 1
